B1: FAM46D (parent)
chain: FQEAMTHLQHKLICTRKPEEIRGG

Variants of: B1
assay_details: protein stability index of a GFP-peptide fusion (GPS, HEK-293T) (PSI 1-6); higher = more stable;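 note: lentivirally expressed fusions sorted by FACS into six bins by GFP to DsRed ratio, PSI derived from sequencing read proportions per bin multiplied by bin number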
assay_context: c terminus: a fixed tail appended
Below, each entry is listed with its recorded protein stability index.
Keep it simple and answer with nothing but the number.

Below, each entry is followed by its recorded protein stability index result.
FQEAMTHLQHKMICTRKPEEIRGG [L12M]; 3.84
FQEAMTHLQHKLLCTRKPEEIRGG [I13L]; 2.13
FQEAMTHLQHPLICTRKPEEIRGG [K11P]; 2.44
FKEAMTHLQHKLICTRKPEEIRGG [Q2K]; 3.46
FQEAMTHLQHKLICTRKPEEIAGG [R22A]; 2.85
FQEAMTHLMHKLICTRKPEEIRGG [Q9M]; 2.21

In plain terms, FQEAMTHLQHKLICTRLPEEIRGG [K17L] has a documented protein stability index of 1.66

In plain terms, FREAMTHLQHKLICTRKPEEIRGG [Q2R] has a documented protein stability index of 4.08

In plain terms, FQEAMTHLQHKLICTGKPEEIRGG [R16G] has a documented protein stability index of 2.6

The measured values listed here are drawn from the supplement of paper PMC10567573.
